# system.tested: Bac-F (UniProt P03420 26-524)
# Sequence (P03420 26-524): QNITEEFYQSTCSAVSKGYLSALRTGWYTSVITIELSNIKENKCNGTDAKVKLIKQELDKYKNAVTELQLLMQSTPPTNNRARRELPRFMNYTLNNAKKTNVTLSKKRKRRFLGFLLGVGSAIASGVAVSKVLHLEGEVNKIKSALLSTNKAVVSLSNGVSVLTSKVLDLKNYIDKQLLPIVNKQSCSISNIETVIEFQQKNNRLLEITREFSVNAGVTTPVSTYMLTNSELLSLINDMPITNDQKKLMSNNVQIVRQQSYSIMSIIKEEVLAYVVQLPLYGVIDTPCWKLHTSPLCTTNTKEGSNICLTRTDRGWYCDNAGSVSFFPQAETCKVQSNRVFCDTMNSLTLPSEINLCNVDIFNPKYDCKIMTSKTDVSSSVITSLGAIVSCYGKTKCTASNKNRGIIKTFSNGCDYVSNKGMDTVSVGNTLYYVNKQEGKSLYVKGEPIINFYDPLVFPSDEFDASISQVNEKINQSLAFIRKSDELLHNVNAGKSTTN
# assay.notes: BIAcore, Mab vs Bac-F, 1:1
observed.property: number in parentheses after KD (fold vs SYNAGIS) (fold)
Write it as a number; the unit fold goes unstated.

P11d4 (monoclonal antibody) (antibody, V domains shown) VH: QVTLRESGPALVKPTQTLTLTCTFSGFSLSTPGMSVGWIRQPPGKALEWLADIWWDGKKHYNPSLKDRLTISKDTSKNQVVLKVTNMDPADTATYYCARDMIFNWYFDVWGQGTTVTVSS VL: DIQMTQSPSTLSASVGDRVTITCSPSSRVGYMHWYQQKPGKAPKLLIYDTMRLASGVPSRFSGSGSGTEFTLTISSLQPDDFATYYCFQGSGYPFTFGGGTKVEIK: 6

Any idea what number in parentheses after KD (fold vs SYNAGIS) was measured for SYNAGIS® (antibody, V domains shown, also called SYNAGIS ®/SYNAGIS ® (HC/LC)) VH: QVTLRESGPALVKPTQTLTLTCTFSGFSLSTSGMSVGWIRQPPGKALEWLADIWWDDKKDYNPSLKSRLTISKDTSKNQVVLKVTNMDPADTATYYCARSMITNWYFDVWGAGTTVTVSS VL: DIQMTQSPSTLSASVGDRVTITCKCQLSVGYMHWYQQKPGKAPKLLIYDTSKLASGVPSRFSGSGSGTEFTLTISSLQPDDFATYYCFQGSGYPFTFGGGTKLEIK ?
1

Which number in parentheses after KD (fold vs SYNAGIS) value belongs to A12a6 (monoclonal antibody) (antibody, V domains shown) VH: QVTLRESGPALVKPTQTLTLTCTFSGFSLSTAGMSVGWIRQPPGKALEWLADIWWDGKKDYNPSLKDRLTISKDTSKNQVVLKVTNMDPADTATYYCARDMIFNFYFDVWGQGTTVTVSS VL: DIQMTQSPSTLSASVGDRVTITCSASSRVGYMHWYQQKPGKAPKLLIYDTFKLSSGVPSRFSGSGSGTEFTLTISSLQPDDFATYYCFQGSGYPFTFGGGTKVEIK ?
98
